- systemUnderTest: α1-adrenoceptors
- assayOverview: Inhibition of 3H-prazosin binding to α1-adrenoceptors in rat brain in vitro
- measurementSetup: 3H-prazosin 0.25 nM, membranes from rat brain
Rule for this label: T means IC50 is less than 7 nM; F means IC50 is at least 7 nM.

Solved entries (count: 3):
molecule="CCn1nnc(-c2ccc3c(c2)c(C2=CCN(CCN4CCNC4=O)CC2)cn3-c2ccc(F)cc2)n1 [Compound 22c]" cat=F
molecule="Cn1nnc(-c2ccc3c(c2)c(C2=CCN(CCN4CCNC4=O)CC2)cn3-c2ccc(F)cc2)n1 [Compound 22a]" cat=T
molecule="CN1CC=C(c2cn(-c3ccc(F)cc3)c3ccc(-c4nnn(C)n4)cc23)CC1 [Compound 21b]" cat=F

Moving on to the next molecule.
In: Field: below-cutoff. Rule: recorded IC50 strictly less than 7 nM. Subject: `Cn1nnc(-c2ccc3c(c2)c(C2=CCN(CCN4CCNC4=O)CC2)cn3-c2ccncc2)n1`
Out: F

---

- systemUnderTest: serotonin S2 (5-HT2A) receptors (Rattus norvegicus, UniProt P14842)
- Construct: Male Wistar (Mol:Wist) rats (125-250 g) are sacrificed and cortical tissue is dissected and weighed; from tissue; host or cells: rat cortex membranes (male Wistar rats)
- Sequence (P14842 whole entry): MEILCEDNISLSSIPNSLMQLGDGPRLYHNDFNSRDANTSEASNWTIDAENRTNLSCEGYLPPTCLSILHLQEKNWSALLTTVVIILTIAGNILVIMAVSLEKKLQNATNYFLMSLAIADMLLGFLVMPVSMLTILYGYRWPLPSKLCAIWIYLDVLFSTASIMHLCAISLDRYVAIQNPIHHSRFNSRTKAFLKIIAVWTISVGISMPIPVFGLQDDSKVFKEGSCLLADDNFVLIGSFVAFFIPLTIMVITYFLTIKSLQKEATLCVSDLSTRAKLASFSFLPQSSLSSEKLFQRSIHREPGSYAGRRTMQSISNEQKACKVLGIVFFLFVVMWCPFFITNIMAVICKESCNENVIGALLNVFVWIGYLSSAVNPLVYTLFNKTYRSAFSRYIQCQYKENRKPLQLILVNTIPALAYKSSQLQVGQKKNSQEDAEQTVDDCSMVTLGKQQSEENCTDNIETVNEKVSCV
- assayOverview: Inhibition of 3H-ketanserin binding to serotonin S2 (5-HT2A) receptors in rat cortex in vitro
- measurementSetup: 3H-ketanserin 0.5 nM, membranes from rat cortex; read-out: IC50 values in nM, 5-HT2A
measurementLabel: IC50

Some solved entries appear below for comparison.
compound=Cn1nnc(-c2ccc3c(c2)c(C2CCN(CCN4CCNC4=O)CC2)cn3-c2ccncc2)n1 measurementlabel=IC50 observedresult="> 100 nM"
compound="CCn1nnc(-c2ccc3c(c2)c(C2=CCN(CCN4CCNC4=O)CC2)cn3-c2ccc(F)cc2)n1 [Compound 22c]" measurementlabel=IC50 observedresult="> 100 nM"

In: What value of measured IC50 is listed for `Cn1nnc(-c2ccc3c(c2)c(C2=CCN(CCN4CCNC4=O)CC2)cn3-c2ccncc2)n1` ?
Out: > 100 nM
